Sourced from PubChem BioAssay AID602252

measured on: Golgi-associated PDZ and coiled-coil motif-containing protein (Homo sapiens) (UniProt Q9HD26)
test protocol: untagged CAL PDZ binding inhibitors, primary screen, biochemical, fluorescence polarization, HTS (AID 602252);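 note: 0% = DMSO neutral control and 100% = excess unlabeled competitor peptide PRC23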
condition context: purified CAL PDZ, TMR-peptide fluorescence polarization, 1 h; at 24.9 µM; active compounds read high
Out of some 300,000 compounds screened, about 2,700 (0.9%) were called active. Shown is part of a subset that was picked to be rich in actives.
Each entry below carries its recorded inhibition.
property measured: inhibition

compound=COc1cc(OC)cc(-c2nnc(N(C)C(=O)c3ccncc3)s2)c1 property_measured=inhibition experimental_value="-5.84% (inactive)"
compound=CCc1cc(C(=O)Nc2nnc(C3CC3)s2)sc1C property_measured=inhibition experimental_value="-1.8% (inactive)"
compound=Cc1cc(C)cc(OCC(=O)Nc2ccc(N3CCOCC3)cc2N2CCOCC2)c1 property_measured=inhibition experimental_value="-3.82% (inactive)"
compound=COc1cccc(NC(=O)C(=O)c2cn(CC(=O)N3CCOCC3)c3ccccc23)c1 property_measured=inhibition experimental_value="-2.58% (inactive)"
compound="CN(C)C(CNC(=O)c1cc2ccccc2o1)c1ccccc1 (stereo unspecified)" property_measured=inhibition experimental_value="-5.09% (inactive)"
compound="N#CC1=C(N)Oc2cc(N)ccc2C1c1ccccc1 (stereo unspecified)" property_measured=inhibition experimental_value="2.39% (inactive)"
compound=Cc1c(NS(=O)(=O)c2cccc(C(=O)Nc3ccc(SC(F)F)cc3)c2)c(=O)n(-c2ccccc2)n1C property_measured=inhibition experimental_value="-2.68% (inactive)"
compound=CC(C)(C)Nc1c(N)c(=O)oc2ccccc12 property_measured=inhibition experimental_value="3.5% (inactive)"
compound=O=[N+]([O-])c1ccc(NS(=O)(=O)c2ccccc2)c(Cl)c1 property_measured=inhibition experimental_value="-10.2% (inactive)"
compound=C/C(=N/Nc1nc(-c2ccccc2)c(CC(=O)O)s1)c1ccccc1 property_measured=inhibition experimental_value="2.17% (inactive)"
compound=C=CCn1c(=O)c(C(=O)Nc2ncccc2O)c(O)c2ccccc21 property_measured=inhibition experimental_value="-2.5% (inactive)"
compound=O=c1oc2ccccc2c(=O)c2ccccc12 property_measured=inhibition experimental_value="39.9% (active)"
compound=Cc1ccc(CNC(=O)C(=O)c2cn(CC(=O)N3CCOCC3)c3ccccc23)cc1 property_measured=inhibition experimental_value="-3.01% (inactive)"
compound=CN(C(=O)c1ccno1)c1nnc(-c2cccnc2)s1 property_measured=inhibition experimental_value="79.5% (active)"
compound="CCCCNC(=O)C(C)N(CCN(C)C)C(=O)CCCN1C(=O)NC(c2ccc(Cl)cc2)C(C(=O)OCc2ccccc2)=C1C (stereo unspecified)" property_measured=inhibition experimental_value="-4.12% (inactive)"
compound=COc1cc(OC)c(C(=O)NNC(=O)c2ccc(NS(=O)(=O)c3cccs3)cc2)cc1OC property_measured=inhibition experimental_value="-2.8% (inactive)"
compound="Cc1ccc(NC(=O)C2CCC(C(C)(C)C)CC2)cc1S(=O)(=O)N1CCOCC1 (stereo unspecified)" property_measured=inhibition experimental_value="-5.24% (inactive)"
compound=COC(=O)[C@]1(Cc2ccccc2)N[C@H](CN(C)S(=O)(=O)c2ccc(F)cc2)[C@@H]2C(=O)N(Cc3ccccc3)C(=O)[C@@H]21 property_measured=inhibition experimental_value="-4.16% (inactive)"
compound=CCCNC(=O)c1c(Cl)cnn1-c1ccc(C)cc1 property_measured=inhibition experimental_value="4.34% (inactive)"
compound=O=C(Nc1ccc(F)cc1)C(=O)c1cn(CC(=O)N2CCOCC2)c2ccccc12 property_measured=inhibition experimental_value="45.3% (active)"
compound="CN(C(=O)C1CCOC1)c1nnc(-c2cccnc2)s1 (stereo unspecified)" property_measured=inhibition experimental_value="5.89% (inactive)"
